Measured pIC50, listed per entry for reference.
Molecular target: MAPK14;MAPK11;MAPK12 (human)
Assay: Inhibition of p38 Kinase Activity
pIC50: −log10 of the molar value.

Before answering, review these 3 worked examples.
>  <MOLECULE>
Cc1ccc(N)cc1Nc1nc(N[C@H]2CCNC2)nc(N(C)CC(C)(C)C)n1

>  <MEASURED_ATTRIBUTE>
pIC50

>  <DATA_VALUE>
> 6.00

$$$$
>  <MOLECULE>
Cc1ccc(C(N)=O)cc1Nc1nc(N[C@@H]2CCN(C(C)C(F)(F)F)C2)nc(N(C)CC(C)(C)C)n1 (stereo partly drawn)

>  <MEASURED_ATTRIBUTE>
pIC50

>  <DATA_VALUE>
> 6.00

$$$$
>  <MOLECULE>
CNC(=O)c1ccc(C)c(Oc2nc(N(C)CC(C)(C)C)nc(N3CCCN(C)CC3)n2)c1

>  <MEASURED_ATTRIBUTE>
pIC50

>  <DATA_VALUE>
> 4.52

$$$$

// query Look up pIC50 of `Cc1ccc(-c2nnc[nH]2)cc1Nc1nc(N[C@@H]2CCNC2)nc(N(C)CC(C)(C)C)n1` and report it.
// result > 6.00

// query Look up pIC50 of `CNC(=O)c1ccc(C)c(Nc2nc(N[C@H]3CCNC3)nc(N(C)CC(C)(C)C)n2)c1` and report it.
// result > 6.00

// query Look up pIC50 of `Cc1ccc(C(=O)Nc2c(Cl)cccc2Cl)cc1Nc1nc(N[C@H]2CCNC2)nc(N(C)CC(C)(C)C)n1` and report it.
// result > 6.00

// query Look up pIC50 of Cc1ccc(CC2C[C@@H](Nc3nc(Nc4cc(C(N)=O)ccc4C)nc(N(C)CC(C)C)n3)CN2)cc1 (stereo partly drawn) and report it.
// result > 6.00

// query Look up pIC50 of Cc1ccccc1NC(=O)N1CC2CC1CN2c1nc(NCC(C)c2ccccc2)nc(Nc2ccc3ncsc3c2)n1 (stereo not drawn) and report it.
// result > 5.00

----------
Target: MAPK14;MAPK11;MAPK12 (human)
Test: Inhibition of p38 Kinase Activity
Measured IC50, listed per entry for reference.

Before answering, review these 2 worked examples.
>  <COMPOUND>
CCC(C)CNc1nc(Nc2cc(C(N)=O)ccc2C)nc(N[C@H]2CCNC2)n1 (some centres not stated)

>  <DATA_VALUE>
< 1 µM

$$$$
>  <COMPOUND>
Cc1ccc(C(N)=O)cc1Nc1nc(NCC(C)(C)C)nc(N[C@@H]2CCNC2)n1

>  <DATA_VALUE>
< 1 µM

$$$$

// query Look up IC50 of `Cc1ccc(C(N)=O)cc1Nc1nc(O[C@H]2CCNC2)nc(N(C)CC(C)(C)C)n1` and report it.
// result < 1 µM

// query Look up IC50 of Cc1ccc(C(N)=O)cc1Nc1nc(N[C@H]2CCNC2)nc(N(C)CC(C)c2ccc(Cl)cc2)n1 (some centres not stated) and report it.
// result < 1 µM

// query Look up IC50 of `Cc1ccc2c(c1Nc1nc(N[C@H]3CCNC3)nc(N(C)CC(C)(C)C)n1)CNC2=O` and report it.
// result < 1 µM

// query Look up IC50 of Cc1ccc(C(N)=O)cc1Nc1nc(N[C@H]2CCN(C(C)c3ccncc3)C2)nc(N(C)CC(C)C)n1 (some centres not stated) and report it.
// result < 1 µM

// query Look up IC50 of `CCCCOc1nc(Nc2cc(C(N)=O)ccc2C)nc(NC2CCCC2)n1` and report it.
// result < 1 µM

// query Look up IC50 of Cc1ccc(C(N)=O)cc1Nc1nc(NCC2CC3CCC2C3)nc(N[C@H]2CCNC2)n1 (some centres not stated) and report it.
// result < 1 µM

// query Look up IC50 of `Cc1ccc(-c2n[nH]c(=O)[nH]2)cc1Nc1nc(N(C)CC(C)(C)C)nc(N2CCCN(C)CC2)n1` and report it.
// result < 1 µM
